Target: Serine/threonine-protein kinase PLK1 (Homo sapiens)
Test: qHTS for Inhibitors of PLK1-PDB (polo-like kinase 1 - polo-box domain): Primary Screen; also: series mostly up to about 57 µM; % is scaled to controls: 0 for no effect and ±100 for the full control effect; nearly all actives have a fitted effect of over 65% in size
Conditions: Plk1 PBD binding of FITC phosphopeptide, fluorescence polarization
Screen size: about 360,000 compounds; about 10,000 (2.8%) were called active. Not shown: some 4% with an inconclusive outcome. This is one part of a sample in which actives are shown more often than they occur.
Reported Endpoint: max response, negative = inhibition (%)
All answers are understood in %, so give the number only.

Form field: reported max response, negative = inhibition of CCOC(=O)c1cccc(C2=C(CNC(=O)c3ccncc3)[C@H]3CC[C@@H](C2)N3Cc2ccccc2)c1
-3.52

Again, but for CCOC(=O)C1SC2(C(F)(F)C(F)F)CC1(O)c1c(c(OC)c3occc3c1OC)O2 (stereo unspecified)
0.906

Again, but for CN(C)C(=O)Oc1ccc(OCc2cccc[n+]2C)cc1
-4.14

Again, but for OC1/C(=C/c2ccc(C(F)(F)F)cc2)N2CCC1CC2 (stereo unspecified)
3.89

Again, but for O=c1[nH]c2ccccc2n1C1CCN(C(c2ccccc2)c2nnnn2Cc2ccccc2)CC1 (stereo unspecified)
3.89

Again, but for CC(C)c1ccc(OCC(=O)N2CCN(C)CC2)c(Br)c1
-13.2
